Value source: patent US6727264B1

# target.system: UniProt:P97639
# assay.summary: Radioligand binding assay at cloned rat MCH1 receptor ([3H] Compound A)
# Parameters: host or cells: Peak rapid 293 (Peakr293) cells, transient calcium phosphate transfection, membranes
# measurement.setup: cloned rat MCH1 receptor; 0.08 nM [3H] Compound A; Peakr293 cell membranes; read-out: Ki (nM) rMCH1
metric.name: Ki (nM)

1 = COc1ccc2[nH]c(-c3cccc(F)c3)c(CCCN3CCC(c4cccc(NC(=O)C(C)C)c4)CC3)c2c1
2 = CC(C)C(=O)Nc1cccc(C2CCN(CCCc3c(-c4ccc(I)cc4)[nH]c4ccc(OC(F)(F)F)cc34)CC2)c1
Query string: Which item exceeds the other in Ki, 1 or 2 ? Write the label of whichever entry you select.
Result string: 2
(2: 47.1 nM, 1: 2.5 nM)

a = CC(C)C(=O)Nc1cccc(C2CCN(CCCCCC(Oc3cc(C(F)(F)F)ccc3F)c3ccccc3)CC2)c1 (stereo not drawn)
b = CC(C)C(=O)Nc1cccc(C2CCN(CCCc3c(-c4ccc(I)cc4)[nH]c4ccccc34)CC2)c1
Query string: Could you point out whether the larger Ki belongs to a or to b ? Give the label under which the chosen entry appears.
Result string: a
(a: 20.2 nM, b: 2.6 nM)

---

# target.system: rat MCH-1 (Rattus norvegicus, UniProt P97639)
# Sequence (P97639 whole entry): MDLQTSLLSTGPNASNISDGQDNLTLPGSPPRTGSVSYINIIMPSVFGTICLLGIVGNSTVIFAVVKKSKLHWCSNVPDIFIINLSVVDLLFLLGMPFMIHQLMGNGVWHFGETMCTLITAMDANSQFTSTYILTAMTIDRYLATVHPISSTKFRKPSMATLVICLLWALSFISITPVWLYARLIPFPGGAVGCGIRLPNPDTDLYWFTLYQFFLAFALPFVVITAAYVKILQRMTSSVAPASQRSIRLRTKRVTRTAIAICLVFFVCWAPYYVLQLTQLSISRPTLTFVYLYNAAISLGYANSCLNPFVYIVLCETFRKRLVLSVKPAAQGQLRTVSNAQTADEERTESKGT
# assay.summary: Radioligand binding assay at cloned rat MCH1 receptor ([3H] Compound A)
# Parameters: host or cells: Peak rapid 293 (Peakr293) cells, transient calcium phosphate transfection, membranes
# measurement.setup: cloned rat MCH1 receptor; 0.08 nM [3H] Compound A; Peakr293 cell membranes; read-out: Ki (nM) rMCH1
metric.name: Ki (nM)

smi	readout.value
CC(C)C(=O)Nc1cccc(C2CCN(Cc3cn(-c4cccc(Cl)c4)c4cc(Cl)ccc34)CC2)c1	9

I = CC(C)C(=O)Nc1cccc(C2CCN(CCCc3c(-c4ccc(F)cc4)[nH]c4ccc(OC(F)(F)F)cc34)CC2)c1
II = CCC(=O)Nc1cccc(C2CCN(CCCC(=O)c3ccc(Cl)cc3)CC2)c1
III = CC(C)C(=O)Nc1cccc(C2CCN(CCc3c[nH]c4ccc(OC(F)(F)F)cc34)CC2)c1
IV = O=C(CCCN1CCC(c2cccc(NC(=O)C3CC3)c2)CC1)c1ccc(Oc2ccccc2)cc1
Query string: Thanks in advance: please rank these 4 entries by Ki, highest to lowest. Answer by writing out the labels in the requested order.
Result string: IV, III, II, I
(IV: 268 nM, III: 27 nM, II: 8.7 nM, I: 4.2 nM)

---

# target.system: rat MCH-1 (Rattus norvegicus)
# assay.summary: Radioligand binding assay at cloned rat MCH1 receptor ([3H] Compound A)
# Parameters: host or cells: Peak rapid 293 (Peakr293) cells, transient calcium phosphate transfection, membranes
# measurement.setup: cloned rat MCH1 receptor, membranes from Peakr293 cells, 0.08 nM [3H] Compound A; read-out: Ki (nM) rMCH1
metric.name: Ki (nM)

Some solved entries appear below for comparison.
molecule	metric.name	readout.value
CC(C)C(=O)Nc1cccc(C2CCN(CCc3c(-c4ccccc4)[nH]c4c3ccc3ccccc34)CC2)c1	Ki	19.7
CC(C)C(=O)Nc1cccc(C2CCN(CCCOc3ccccc3Cl)CC2)c1	Ki	84
CC(C)C(=O)Nc1cccc(C2CCN(CCCOc3cccc(Br)c3)CC2)c1	Ki	61.8
COc1ccc(C(O)CCN2CCC(c3cccc(NC(=O)C(C)C)c3)CC2)cc1 (centres unmarked)	Ki	329
CC(C)C(=O)Nc1cccc(C2CCN(CCCC3OCC(C)(C)CO3)CC2)c1	Ki	96.8

1 = CC(=O)c1cccc(OCCCCCCN2CCC(c3cccc(NC(=O)C4CC4)c3)CC2)c1
2 = CC(C)C(=O)Nc1cccc(C2CCN(CC[C@H](NC(=O)c3ccc(F)c(F)c3)c3ccccc3)CC2)c1
Query string: Identify the item whose Ki is the smaller number: 1 or 2 Answer = label.
Result string: 2

1 = CC(C)C(=O)Nc1cccc(C2CCN(CCC(Oc3ccc(F)c(F)c3)c3ccc(Cl)cc3)CC2)c1 (centres unmarked)
2 = Cc1onc(-c2c(F)cccc2Cl)c1C(=O)NCCCN1CCC(c2cccc(NC(=O)C(C)C)c2)CC1
3 = Cc1onc(-c2ccccc2Cl)c1C(=O)OCCCCN1CCC(c2cccc(NC(=O)C(C)C)c2)CC1
4 = CC(C)C(=O)Nc1cccc(C2CCN(CCC(=O)c3ccccc3)CC2)c1
5 = CCCCOc1ccc2ccccc2c1CN1CCC(c2cccc(NC(=O)C(C)C)c2)CC1
Query string: Ordering criterion: Ki; begin with the maximum. Give your ranking as a list of the labels in the requested order.
Result string: 5, 4, 2, 3, 1

I = CC(C)C(=O)Nc1cccc(C2CCN(CCCCCc3c(-c4ccccc4)[nH]c4c3ccc3ccccc34)CC2)c1
II = CC(C)C(=O)Nc1cccc(C2CCN(CCC(O)c3ccc(Br)cc3)CC2)c1 (centres unmarked)
Query string: Quick one: lower Ki, I or II ? Give the label under which the chosen entry appears.
Result string: I

---

# target.system: rat MCH-1 (Rattus norvegicus, UniProt P97639)
# assay.summary: Radioligand binding assay at cloned rat MCH1 receptor ([3H] Compound A)
# Design: host or cells: Peak rapid 293 (Peakr293) cells, transient calcium phosphate transfection, membranes
# measurement.setup: cloned rat MCH1 receptor, membranes from Peakr293 cells, 0.08 nM [3H] Compound A; read-out: Ki (nM) rMCH1
metric.name: Ki (nM)

compound	readout.value
CC(C)C(=O)Nc1cccc(C2CCN(Cc3c(OCc4ccc(C#N)cc4)ccc4ccccc34)CC2)c1	436
COc1ccc(OC(CCN2CCC(c3cccc(NC(=O)C(C)C)c3)CC2)c2ccc3c(c2)CCC3)cc1 (centres unmarked)	7.9
CC(C)C(=O)Nc1cccc(C2CCN(Cc3cccc(Oc4ccc(Cl)c(Cl)c4)c3)CC2)c1	17.7
CC(C)C(=O)Nc1cccc(C2CCN(CC[C@H](NC(=O)c3ccc(N(C)C)cc3)c3ccccc3)CC2)c1	99.9

1 = CC(C)C(=O)Nc1cccc(C2CCN(Cc3ccc(-c4cccc(OC(F)(F)F)c4)o3)CC2)c1
2 = CC(=O)c1cccc(OCCCN2CCC(c3cccc(NC(=O)C(C)C)c3)CC2)c1
3 = CC(C)C(=O)Nc1cccc(C2CCN(CC[C@H](NC(=O)c3sccc3Cl)c3ccccc3)CC2)c1
4 = CC(C)C(=O)Nc1cccc(C2CCN(CCC(Oc3cc(F)ccc3F)c3ccc(F)cc3)CC2)c1 (centres unmarked)
Query string: // ranking: key=Ki, reverse=True Provide your answer as the labels ordered per the instruction.
Result string: 1, 2, 4, 3

---

# target.system: rat MCH-1 (Rattus norvegicus, UniProt P97639)
# assay.summary: Radioligand binding assay at cloned rat MCH1 receptor ([3H] Compound A)
# Design: host or cells: Peak rapid 293 (Peakr293) cells, transient calcium phosphate transfection, membranes
# measurement.setup: cloned rat MCH1 receptor; 0.08 nM [3H] Compound A; Peakr293 cell membranes; read-out: Ki (nM) rMCH1
metric.name: Ki (nM)

molecule	metric.name	readout.value
CC(C)C(=O)Nc1cccc(C2CCN(CCCCC(Oc3ccc(Cl)cc3)c3ccc(Cl)cc3)CC2)c1 (stereo not shown)	Ki	6.9
CCC(=O)Nc1cccc(C2CCN(Cc3cn(-c4ccc(Cl)cc4)c4ccccc34)CC2)c1	Ki	10.6
COc1cccc2c(CCCCN3CCC(c4cccc(NC(=O)C(C)C)c4)CC3)c(-c3ccccc3)[nH]c12	Ki	12.3
CC(C)C(=O)Nc1cccc(C2CCN(CCCc3c(-c4ccc(I)cc4)n(C)c4ccccc34)CC2)c1	Ki	3.1
COc1ccccc1OC(CCCCCN1CCC(c2cccc(NC(=O)C(C)C)c2)CC1)c1ccccc1F (stereo not shown)	Ki	6.5

P = O=C(Nc1cccc(C2CCN(Cc3cn(-c4cccc(Cl)c4)c4ccccc34)CC2)c1)C1CC1
Q = COc1ccc(CCCCN2CCC(c3cccc(NC(=O)C(C)C)c3)CC2)cc1
Query string: Hi! Which is lower in terms of Ki, the first one P or the second one Q ? # answer = label of selected item
Result string: P

---

# target.system: rat MCH-1 (Rattus norvegicus, UniProt P97639)
# assay.summary: Radioligand binding assay at cloned rat MCH1 receptor ([3H] Compound A)
# Parameters: host or cells: Peak rapid 293 (Peakr293) cells, transient calcium phosphate transfection, membranes
# measurement.setup: cloned rat MCH1 receptor, membranes from Peakr293 cells, 0.08 nM [3H] Compound A; read-out: Ki (nM) rMCH1
metric.name: Ki (nM)

Use the examples below as a reference point.
molecule	target.system	readout.value
CC(C)C(=O)Nc1cccc(C2CCN(CC[C@H](NC(=O)c3cnn(-c4ccc([N+](=O)[O-])cc4)c3C(F)(F)F)c3ccccc3)CC2)c1 [Example 327]	rat MCH-1 (Rattus norvegicus, UniProt P97639)	7.7
Cc1nn(C)c2ncc(C(=O)N[C@@H](CCN3CCC(c4cccc(NC(=O)C(C)C)c4)CC3)c3ccccc3)c(Cl)c12 [Example 317]	rat MCH-1 (Rattus norvegicus, UniProt P97639)	110

I = CC(=O)c1cccc(O[C@@H](CCN2CCC(c3cccc(NC(=O)C4CC4)c3)CC2)c2ccccc2)c1 [Example 340]
II = Cc1onc(-c2c(F)cccc2Cl)c1C(=O)OC(CCCN1CCC(c2cccc(NC(=O)C(C)C)c2)CC1)c1ccccc1 (stereo not drawn) [Example 295]
III = CC(C)C(=O)Nc1cccc(C2CCN(C[C@H](C)COc3cccc(Cl)c3)CC2)c1 [Example 358]
IV = CC(C)C(=O)Nc1cccc(C2CCN(CC[C@H](NC(=O)c3ccccn3)c3ccccc3)CC2)c1 [Example 309]
Query string: hey, can you rank those molecules up there by Ki? biggest number first please Output the labels ranked as instructed.
Result string: IV, III, I, II
